% Phosphatase Activity (compared to DMSO) PRL-1 by entry:
molecular target: recombinant PRL-1 (Homo sapiens); construct: 6xHis (N, cleaved yes); made in house; host or cells: E. coli One Shot BL21 Star; test: In vitro phosphatase assay (DiFMUP hydrolysis), PRL-1; type: biochemical; settings: FDA-approved drug screen; compared to DMSO
Sequence (Q93096 whole entry): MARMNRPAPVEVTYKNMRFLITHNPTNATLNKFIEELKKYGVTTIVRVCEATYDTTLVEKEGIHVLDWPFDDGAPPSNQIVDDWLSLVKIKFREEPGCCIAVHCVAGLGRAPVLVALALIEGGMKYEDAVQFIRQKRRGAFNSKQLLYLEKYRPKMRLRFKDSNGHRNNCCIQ
Where a name gives a salt, the structure may show the parent alone.
value.kind: % Phosphatase Activity (compared to DMSO) PRL-1 (%)

[[record]]
molecule = "NCC[C@H](O)C(=O)N[C@@H]1C[C@H](N)[C@@H](O[C@H]2O[C@H](CN)[C@@H](O)[C@H](O)[C@H]2O)[C@H](O)[C@H]1O[C@H]1O[C@H](CO)[C@@H](O)[C@H](N)[C@H]1O [Amikacin disulfate]"
assay_value = 96

[[record]]
molecule = "CC(C)Cn1cnc2c(N)nc3ccccc3c21"
assay_value = 98

[[record]]
molecule = "NC(CO)C(=O)NNCc1ccc(O)c(O)c1O (centres unmarked) [Benserazide HCl]"
assay_value = 103

[[record]]
molecule = "C=CC(=O)Nc1cccc(Nc2nc(Nc3ccc(N4CCN(C(C)=O)CC4)cc3OC)ncc2C(F)(F)F)c1"
assay_value = 93

[[record]]
molecule = "NNC(=O)c1ccncc1"
assay_value = 91

[[record]]
molecule = "NCCCCCC(=O)O"
assay_value = 110

[[record]]
molecule = "C[N+]1(C)CCC(OC(=O)C(O)(c2ccccc2)C2CCCC2)C1 (centres unmarked) [Glycopyrrolate]"
assay_value = 108

[[record]]
molecule = "Cl.N=C(N)NCCC[C@H](N)C(=O)O [L-Arginine HCl (L-Arg)]"
assay_value = 82


###

target: recombinant PRL-3 (Homo sapiens, UniProt O75365); construct: 6xHis (N, cleaved yes); made in house; host or cells: E. coli One Shot BL21 Star; test: In vitro phosphatase assay (DiFMUP hydrolysis), PRL-3; type: biochemical; conditions: FDA-approved drug screen; compared to DMSO
Sequence (O75365 whole entry): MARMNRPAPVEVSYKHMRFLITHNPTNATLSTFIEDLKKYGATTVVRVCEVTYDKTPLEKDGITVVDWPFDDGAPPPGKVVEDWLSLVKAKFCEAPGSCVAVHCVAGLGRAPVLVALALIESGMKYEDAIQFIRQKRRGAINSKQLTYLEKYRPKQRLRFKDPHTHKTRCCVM
Counter-ions that a name gives are not always drawn.
Dear colleague, classification is by % Phosphatase Activity (compared to DMSO) PRL-3, with ranges listed here: low: < 80%; mid: ≥ 80% and < 90%; high: ≥ 90%

[[record]]
compound = "N#C/C(=C1/SC[C@@H](c2ccc(Cl)cc2Cl)S1)n1ccnc1"
assigned_label = "mid"

[[record]]
compound = "CCC1(c2cccc(O)c2)CCCCN(C)C1 (stereo not shown) [Meptazinol HCl]"
assigned_label = "mid"

[[record]]
compound = "COc1cc2nccc(Oc3ccc(NC(=O)C4(C(=O)Nc5ccc(F)cc5)CC4)cc3)c2cc1OC [Cabozantinib (XL184, BMS-907351)]"
assigned_label = "low"

[[record]]
compound = "CN(CCOc1ccc(CC2SC(=O)NC2=O)cc1)c1ccccn1 (stereo not shown) [Rosiglitazone maleate]"
assigned_label = "mid"

[[record]]
compound = "CC[C@H](C)C(=O)O[C@H]1CCC=C2C=C[C@H](C)[C@H](CC[C@@H]3C[C@@H](O)CC(=O)O3)[C@H]21"
assigned_label = "low"

[[record]]
compound = "CCS(=O)(=O)N1CCN(c2ccc(Nc3ncc(C(N)=O)c(NC4CC4)n3)cc2)CC1"
assigned_label = "high"

[[record]]
compound = "Clc1ccc(C(Cn2ccnc2)OCc2ccc(Sc3ccccc3)cc2)c(Cl)c1 (stereo not shown) [Fenticonazole Nitrate]"
assigned_label = "high"

[[record]]
compound = "CN1CCc2nc(C(=O)N[C@@H]3C[C@@H](C(=O)N(C)C)CC[C@@H]3NC(=O)C(=O)Nc3ccc(Cl)cn3)sc2C1"
assigned_label = "high"

[[record]]
compound = "Cc1cc(O)ccc1Cl"
assigned_label = "low"

[[record]]
compound = "CC(=O)O[C@H]1C[C@@]2(C)[C@@H](C[C@@H](O)[C@H]3[C@@]4(C)CC[C@@H](O)[C@@H](C)[C@@H]4CC[C@@]32C)/C1=C(\\CCC=C(C)C)C(=O)O [Fusidate Sodium]"
assigned_label = "low"


###

target: recombinant PRL-3 (Homo sapiens, UniProt O75365); construct: 6xHis (N, cleaved yes); made in house; host or cells: E. coli One Shot BL21 Star; assay: In vitro phosphatase assay (DiFMUP hydrolysis), PRL-3; format: biochemical; settings: FDA-approved drug screen; activity compared to DMSO
Structures can show the parent of a compound that is named as a salt.
Decide using % Phosphatase Activity (compared to DMSO) PRL-3: a value greater than or equal to 90% is 1.0, a smaller one is 0.0.

[[record]]
compound = "Cc1cnc(Nc2ccc(OCCN3CCCC3)cc2)nc1Nc1cccc(S(=O)(=O)NC(C)(C)C)c1 [TG101348 (SAR302503)]"
assigned_label = 1.0

[[record]]
compound = "C/C(O)=C(\\C#N)C(=O)Nc1ccc(C(F)(F)F)cc1 [Teriflunomide]"
assigned_label = 0.0

[[record]]
compound = "COc1cc2nc(N3CCN(C(=O)C4CCCO4)CC3)nc(N)c2cc1OC (stereo not shown) [Terazosin]"
assigned_label = 1.0

[[record]]
compound = "CCn1c(=O)c(-c2cc[nH]n2)cc2c(C)nc(N)nc21 [Voxtalisib (XL765, SAR245409)]"
assigned_label = 1.0

[[record]]
compound = "CCOC(=O)[C@@H](N)Cc1ccc(-c2cc(O[C@H](c3ccc(Cl)cc3-n3ccc(C)n3)C(F)(F)F)nc(N)n2)cc1.O=C(O)CNC(=O)c1ccccc1 [Telotristat Etiprate (LX 1606 Hippurate)]"
assigned_label = 1.0

[[record]]
compound = "CN[C@H](CC(C)C)C(=O)N[C@H]1C(=O)N[C@@H](CC(N)=O)C(=O)N[C@H]2C(=O)N[C@H]3C(=O)N[C@H](C(=O)N[C@H](C(=O)O)c4cc(O)cc(O)c4-c4cc3ccc4O)[C@H](O)c3ccc(c(Cl)c3)Oc3cc2cc(c3O[C@@H]2O[C@H](CO)[C@@H](O)[C@H](O)[C@H]2O[C@H]2C[C@](C)(N)[C@H](O)[C@H](C)O2)Oc2ccc(cc2Cl)[C@H]1O [Vancomycin HCl]"
assigned_label = 1.0

[[record]]
compound = "Cl.O=C1Cc2cc(CCN3CCN(c4nsc5ccccc45)CC3)c(Cl)cc2N1 [Ziprasidone HCl]"
assigned_label = 0.0

[[record]]
compound = "Cl.Cl.Clc1ccc(Nc2nnc(Cc3ccncc3)c3ccccc23)cc1 [Vatalanib (PTK787) 2HCl]"
assigned_label = 0.0

[[record]]
compound = "COc1cc2nccc(Oc3ccc(NC(=O)Nc4cc(C)on4)c(Cl)c3)c2cc1OC [Tivozanib (AV-951)]"
assigned_label = 0.0

[[record]]
compound = "CN1C(C(=O)Nc2ccccn2)=C(O)c2sccc2S1(=O)=O [Tenoxicam]"
assigned_label = 0.0

[[record]]
compound = "Nc1ccc(C(=O)[O-])c(O)c1.[Na+] [Sodium 4-Aminosalicylate]"
assigned_label = 0.0

[[record]]
compound = "Cc1ccc(C(=O)C(C)CN2CCCCC2)cc1.Cl (stereo not shown) [Tolperisone HCl]"
assigned_label = 0.0

[[record]]
compound = "CC[C@H]1OC(=O)C[C@@H](O)[C@H](C)[C@@H](O[C@@H]2O[C@H](C)[C@@H](O)[C@H](N(C)C)[C@H]2O)[C@@H](CCN2C[C@H](C)C[C@H](C)C2)C[C@@H](C)C(=O)/C=C/C(C)=C/[C@@H]1CO[C@@H]1O[C@H](C)[C@@H](O)[C@@H](OC)[C@H]1OC [Tilmicosin]"
assigned_label = 0.0

[[record]]
compound = "CN(C)c1cc(NC(=O)CNC(C)(C)C)c(O)c2c1C[C@H]1C[C@H]3[C@H](N(C)C)C(O)=C(C(N)=O)C(=O)[C@@]3(O)C(O)=C1C2=O [Tigecycline]"
assigned_label = 0.0

[[record]]
compound = "CC(C)OC(=O)OCOP(=O)(CO[C@H](C)Cn1cnc2c(N)ncnc21)OCOC(=O)OC(C)C [Tenofovir Disoproxil Fumarate]"
assigned_label = 0.0

[[record]]
compound = "OC[C@@H](O)[C@H](O)[C@@H](O)CO [Xylitol]"
assigned_label = 1.0

[[record]]
compound = "CC[C@@]1(O)C(=O)OCc2c1cc1n(c2=O)Cc2cc3c(CN(C)C)c(O)ccc3nc2-1 [Topotecan HCl]"
assigned_label = 1.0

[[record]]
compound = "CN1[C@@H]2CC[C@H]1C[C@@H](OC(=O)c1c[nH]c3ccccc13)C2 [Tropisetron]"
assigned_label = 1.0

[[record]]
compound = "CCN1CCCC1CNC(=O)c1cc(S(N)(=O)=O)ccc1OC (stereo not shown) [Sulpiride]"
assigned_label = 0.0

[[record]]
compound = "COc1cc(O)c(C(=O)c2ccccc2)cc1S(=O)(=O)O [Sulisobenzone]"
assigned_label = 0.0

[[record]]
compound = "CSc1nc2cc(Cl)c(Oc3cccc(Cl)c3Cl)cc2[nH]1 [Triclabendazole]"
assigned_label = 0.0

[[record]]
compound = "COc1cc([C@@H]2c3cc4c(cc3[C@@H](O[C@@H]3O[C@@H]5CO[C@@H](c6cccs6)O[C@H]5[C@H](O)[C@H]3O)[C@H]3COC(=O)[C@H]23)OCO4)cc(OC)c1O [Teniposide]"
assigned_label = 1.0

[[record]]
compound = "O=c1sn(-c2cccc3ccccc23)c(=O)n1Cc1ccccc1 [Tideglusib]"
assigned_label = 1.0


Origin of values: paper PMC8119466
